tested-system: T1, human GIP receptor (human, UniProt P48546 22-466)
T1 construct: whole, on cells; Transiently transfected COS-7 cells expressing the human GIP receptor; also called hGIPR
T1 sequence (looked up): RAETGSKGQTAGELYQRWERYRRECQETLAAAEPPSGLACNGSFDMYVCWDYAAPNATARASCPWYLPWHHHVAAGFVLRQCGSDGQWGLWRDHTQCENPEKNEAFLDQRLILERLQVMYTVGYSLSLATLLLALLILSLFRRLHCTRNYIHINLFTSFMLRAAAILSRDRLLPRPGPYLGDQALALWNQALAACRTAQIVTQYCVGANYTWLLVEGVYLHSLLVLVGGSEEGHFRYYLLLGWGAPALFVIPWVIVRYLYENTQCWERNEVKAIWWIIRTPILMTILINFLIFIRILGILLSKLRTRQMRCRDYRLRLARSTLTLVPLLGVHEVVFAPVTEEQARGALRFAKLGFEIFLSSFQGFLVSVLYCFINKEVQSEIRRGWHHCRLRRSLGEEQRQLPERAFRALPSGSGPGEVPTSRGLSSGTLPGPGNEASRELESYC
assay-summary: 125I-hGIP competition binding on hGIPR COS-7 cells; fold in affinity, paired, reference taken as GIP(3-30)NH2
Ends that are not written are not given here. * marks the point of attachment. Stearoyl = CCCCCCCCCCCCCCCCCC(=O)*; Palmitoyl = CCCCCCCCCCCCCCCC(=O)*; Myristoyl = CCCCCCCCCCCCCC(=O)*; Lauroyl = CCCCCCCCCCCC(=O)*

binder	fold (paired) / fold
Stearoyl-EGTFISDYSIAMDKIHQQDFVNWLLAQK-NH2 [AT113 [hGIP(3-30)NH2-C18/3]]	16400
EGTFISDYSIAMDK(Palmitoyl)IHQQDFVNWLLAQK-NH2 [AT105 [hGIP(3-30)NH2-C16/16]]	34
EGTFISDYSIAMDK(Lauroyl)IHQQDFVNWLLAQK-NH2 [AT102 [hGIP(3-30)NH2-C12/16]]	6.1
Myristoyl-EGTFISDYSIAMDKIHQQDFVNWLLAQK-NH2 [AT110 [hGIP(3-30)NH2-C14/3]]	5.2
EGTFISDYSIAMDK(Myristoyl)IHQQDFVNWLLAQK-NH2 [AT111 [hGIP(3-30)NH2-C14/16]]	31
Palmitoyl-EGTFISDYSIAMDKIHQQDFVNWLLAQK-NH2 [AT104 [hGIP(3-30)NH2-C16/3]]	4.9
Lauroyl-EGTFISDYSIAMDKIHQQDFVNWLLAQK-NH2 [AT101 [hGIP(3-30)NH2-C12/3]]	0.7
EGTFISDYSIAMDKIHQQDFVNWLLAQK (pyroglutamic acid (pGlu) in place of Glu at position 3 in GIP numbering (residue 1 of the entry); C16 (palmitoyl) fatty acid on Lys at position 16 (residue 14 of the entry); C-terminal amide taken from the series hGIP(3-30)NH2) [AT109 (E3pGlu, C16 at position 16)]	74
